test system: Saccharomyces cerevisiae; test: protein stability index of tFT-peptide fusion (C-terminal peptide) (PSI (0-1 scale)); higher = more stable (slower turnover); settings: genetic background: das1 deletion; temperature: 30 C
Listed below: protein stability index values for each entry.

Recorded protein stability index, per entry:
| Input Sequence | Test System | protein stability index |
| --- | --- | --- |
| AMYDKITESQKK [CHD1 C-terminal 12 aa] | Saccharomyces cerevisiae | 0.714 |
| EPRYNDDAQVSD [KCS1 C-terminal 12 aa] | Saccharomyces cerevisiae | 0.684 |
| KVHQGKYNGPGL [AI2 C-terminal 12 aa] | Saccharomyces cerevisiae | 0.691 |
| VASSTEQLLQEM [DYN1 C-terminal 12 aa] | Saccharomyces cerevisiae | 0.674 |
| DEDEFENQRQQF [YIL055C C-terminal 12 aa] | Saccharomyces cerevisiae | 0.71 |

Entry under test: IKYNWERCFNGE [YDR521W C-terminal 12 aa] . Its protein stability index was 0.71

protein stability index reading for KRQGRTLYGFGG [YBR009C; YNL030W C-terminal 12 aa] : 0.701

Entry RKFFSMRSLNSR [CHL1 C-terminal 12 aa] — recorded protein stability index = 0.696

Lab note: ISQWREWIDEKL [SRP102 C-terminal 12 aa] gave protein stability index of 0.679

protein stability index measured on QHIKTHKKHGDI [MSN2 C-terminal 12 aa] = 0.678

Input KHKNYLSFNFTK [YLL065W C-terminal 12 aa] . Output protein stability index: 0.698

Record KWVGQYPVPGDI [SHM1 C-terminal 12 aa] . Reported protein stability index: 0.693

---

test system: Saccharomyces cerevisiae; assay: protein stability index of tFT-peptide fusion (C-terminal peptide) (PSI (0-1 scale)); higher = more stable (slower turnover); settings: genetic background: doa10 deletion; temperature: 30 C
Consider the following sequences and their measured protein stability index readings.
// return a plain number; no unit text

The examples below pair each entry with its known result.
| Input Sequence | protein stability index |
| --- | --- |
| LSRFRYFVLTSL | 0.146 |
| GALWPGALRFLN | 0.101 |
| FPRPLPVPLAVS | 0.155 |

Lookup result for "ILFVCVCVLHVG" ; measured protein stability index: 0.121

Lab note: measured protein stability index of "LYYSVIFLFLSW" was 0.272

Record summary for "LSQPGWFKCCLS" : reported protein stability index = 0.308

---

tested on: Saccharomyces cerevisiae; assay: protein stability index of tFT-peptide fusion (C-terminal peptide) (PSI (0-1 scale)); higher = more stable (slower turnover); conditions: genetic background: wild type; temperature: 30 C
Respond with Fulfilled for protein stability index values of 0.7 and above, Not fulfilled for values below.

The following sequences have reported results that may help.
| Input Sequence | Group Label |
| --- | --- |
| GTFPRNERYYHK [PHA2 C-terminal 12 aa] | Fulfilled |
| LPPGRVFSRVRR [MRPL35 C-terminal 12 aa] | Not fulfilled |
| GNLSLDWLNLNL [GAT1 C-terminal 12 aa] | Fulfilled |

Moving on to another sequence below.
Request: Identify whether the reported protein stability index of the following sequence is 0.7 or greater: GDPIDLKEKKLN [RER2 C-terminal 12 aa]
Result: Not fulfilled

---

test system: Saccharomyces cerevisiae; assay: protein stability index of tFT-peptide fusion (C-terminal peptide) (PSI (0-1 scale)); higher = more stable (slower turnover); conditions: genetic background: wild type; temperature: 30 C
Test Readout: protein stability index
No unit in the answer, please; the number alone is enough.

| Input Sequence | Readout Number |
| --- | --- |
| SLPPPPAPPPAI | 0.706 |

Just so you know, measured protein stability index for "PRIPPPIPPDTP" came out at 0.695

Short answer for "DRCSRFRCFFVG" : protein stability index was 0.6

Recorded result, "PLPRFLTLTLSQ" , protein stability index: 0.652

Entry under test: "GVEDRFGGSCGL" . Its protein stability index was 0.639

Measured protein stability index, "LFRWLLRLVISH" : 0.608

For reference, reported protein stability index for "DYLDYPSYNDLT" stands at 0.599

Value of measured protein stability index for the entry "LFIVTFIPVLFS" : 0.494

Entry under test: "FSFIPIRRYPVM" . Its protein stability index was 0.733

Value of protein stability index reported for the sequence "TRSLPTLSPPPS" is 0.659

Item: "PLPSPDLPLTHH" | protein stability index: 0.679

GET /value?item= "VGAWGLMLASVV" &field=protein stability index returns 0.57

---

test system: Saccharomyces cerevisiae; assay: protein stability index of tFT-peptide fusion (C-terminal peptide) (PSI (0-1 scale)); higher = more stable (slower turnover); settings: genetic background: wild type; temperature: 30 C
Test Readout: protein stability index

// known answers, use as guide
| Input Sequence | protein stability index |
| --- | --- |
| WFPRLGKRSRGS | 0.69 |
| ADWTATTDPTST | 0.748 |
| KRIDLDCSVAAD | 0.643 |
| GGGGGGWSGACL | 0.716 |
| GSVMGRRTGAFV | 0.653 |
| RESTGRDQRGIV | 0.673 |
| LLAFLPPPPCPP | 0.709 |
| HPYVTSHGRPLR | 0.677 |

Continue with the sequence presented below.
Form field protein stability index, entry "CGWSQLCRDSES" : 0.675

---

protein stability index by entry:
test system: Saccharomyces cerevisiae; assay: protein stability index of tFT-peptide fusion (C-terminal peptide) (PSI (0-1 scale)); higher = more stable (slower turnover); conditions: genetic background: wild type; temperature: 30 C
Please respond with just the number, no unit label.

These recorded examples may help you get a feel for the data.
| Input Sequence | Test System | Readout Number |
| --- | --- | --- |
| PLLAQSALFVIA | Saccharomyces cerevisiae | 0.59 |
| LLRVPPGPIFPS | Saccharomyces cerevisiae | 0.661 |

Recorded protein stability index (sequence "FVVVVVGGGWGG" ): 0.516

The recorded protein stability index for "RRMAGEPKCGRS" is 0.699

For this sequence ( "YMAGGQCDRLPG" ), measured protein stability index is 0.677

"LFVFTYPFLSWL" yielded protein stability index of 0.478

Notebook: "ATGFSLLDFSMP" , protein stability index read as 0.679

"AEGKGRCRRSCW" has a reported protein stability index of 0.693

The sequence "RGGPTRVSLPPR" showed protein stability index equal to 0.654

The measured protein stability index associated with "TLCITHARCFVK" reads 0.63

---

system: Saccharomyces cerevisiae; assay: protein stability index of tFT-peptide fusion (C-terminal peptide) (PSI (0-1 scale)); higher = more stable (slower turnover); conditions: genetic background: wild type; temperature: 30 C
The threshold is inclusive: protein stability index of exactly 0.7 counts as satisfied; values below receive not satisfied.

Worked cases, answers included:
| Input Sequence | Group Label |
| --- | --- |
| PPPVPPTPFLTR | satisfied |
| GGSKIGFTVGGG | satisfied |
| FVKRFSNGGVKT | satisfied |
| RSSLGSFSELSQ | satisfied |
| VGGGGGGCLVDC | not satisfied |

Request: Reported protein stability index reaches at least 0.7 for "LGQRFRLFVSFF" ?
Result: not satisfied

Request: Check if protein stability index >= 0.7 (inclusive). Item: "KKKKKKKKTKKR"
Result: not satisfied

Request: Is protein stability index for "AWLTTSGLVGSD" at or above 0.7?
Result: satisfied

Request: Quick check, protein stability index >= 0.7? "KQHTEQIDRRTG"
Result: not satisfied

Request: Exam item: decide whether the reported protein stability index for "VGLWCWSFVLVW" is at least 0.7.
Result: not satisfied

Request: Given the entry "VGGRGGGRGVVG" , answer whether its protein stability index meets or surpasses 0.7.
Result: not satisfied

---

test system: Saccharomyces cerevisiae; test: protein stability index of tFT-peptide fusion (C-terminal peptide) (PSI (0-1 scale)); higher = more stable (slower turnover); conditions: genetic background: wild type; temperature: 37 C
Rule: protein stability index under 0.4 gives 0, otherwise 1.

Use these answered entries as a reference point.
| Input Sequence | Group Label |
| --- | --- |
| LMWVFPRVVWLY | 0 |
| RHRGHVRLALLN | 0 |
| RVHFLIVFLCRF | 1 |
| GGWRVLHAWVAV | 1 |
| RQALYFLMICGL | 1 |

Request: protein stability index >= 0.4 for "LGRVSAKFFCVL" ?
Result: 0

Request: Is it the case that "GLYLVFMGFVPC" has protein stability index reaching or exceeding 0.4?
Result: 1

Request: Please indicate if the recorded protein stability index for "LRCCGALPLYAY" meets or exceeds 0.4.
Result: 0

Request: Reported protein stability index reaches at least 0.4 for "RLGRYSIIHCLA" ?
Result: 0

Request: Is the recorded value of protein stability index equal to or greater than 0.4 for this sequence? "RIEGTLTARTAF"
Result: 1

Request: Can "GVFFHFFFLFCF" be said to have protein stability index at or above 0.4?
Result: 1

Request: Please tell me: is the sequence "FLSFARSSCLWF" at or over 0.4 in terms of protein stability index?
Result: 1
